Biological target: T1, BCMA-Fc (human, UniProt Q02223 1-54)
T1 construct: coating antigen, 1 ug/mL; also called Fc-conjugated human BCMA; not shown: Fc
T1 sequence (looked up): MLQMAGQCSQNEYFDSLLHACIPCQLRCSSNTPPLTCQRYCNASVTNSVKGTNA
Experiment: ELISA, BCMA-Fc coated 1 ug/mL
Observation type: OD450 (OD450)
# output: bare number, implied unit OD450

Binder	Observation type	Observed
NBL507-A1L1-P1R2-1A1-(1)-PME207-SEQF_A01 (VHH, purified VHH; also called lAl) VHH: EVQLVESGGGLVQPGGSLRLSCAASGFTFRSSAMSWARQAPGKGLEWVSDIYPDGRTDYADSIKGRFTMSRDNAKNTVYLLMDSLKPEDTAVYHCQVGRYVSGVYYQPRGQGTQVTVSS	OD450	2.47

In: Quick one: OD450 of NBL507-A1L1-P1R2-1B6-(31)-PME207-SEQF_G04 (VHH, purified VHH) VHH: QVQLVESGGGLVQPGGSLRLSCAASGFTFSPSAMSWARQAPGKGLEWVSGIYSDGSTYYRDSVKGRFTISRDNARNMVYLQMNSLKPEDTAVYYCALGAMREGVYSDLLGQGTQVTVSS ?
Out: 2.52
